Species: Felis catus
assayRemarks: In vitro inotropic effect in cat papillary muscle
Assay type: functional
Catalogue of pEC50 values
Lab note — pEC50 values are minus log10 of concentrations in M.

{"compound": "Cc1nc(O)c(Br)c(NCc2cccnc2)n1", "recordedValue": 5.60}
{"compound": "Cc1nc(=O)c(C#N)c(NCc2cccnc2)[nH]1 [PELRINONE]", "recordedValue": 5.30}

Quick one: give measured pEC50 for Cc1[nH]c(=O)c(C#N)cc1-c1ccncc1 [MILRINONE]
5.19
